# Assay Explanation: Oral bioavailability in mouse at 5 mg/kg
# Format: ADME, organism-based
# Condition Parameters: in vivo
Recorded Metric: bioavailability (%)
Dear colleague, please return just the value in %, with no unit written.

Output measured bioavailability for this item: Cc1nc(Nc2cc(N[C@@H]3CCCC[C@@H]3N)nnc2C(N)=O)ccc1Cl
51

----------
molecules and their reported bioavailability
# Assay Explanation: Oral bioavailability in mouse at 30 mg/kg
# Assay type: ADME, organism-based
# Condition Parameters: in vivo
Express your answer as a number followed by its unit.

>  <Smiles Text>
Cc1nc(Nc2cc(N[C@@H]3CCCC[C@@H]3N)nnc2C(N)=O)ccc1F

>  <Recorded Metric>
bioavailability

>  <Reading>
20%

$$$$

Output measured bioavailability for this item: Cc1nc(Nc2cc(N[C@@H]3CCCC[C@@H]3N)nnc2C(N)=O)ccc1Cl
40%

----------
compounds and their reported CLhep predicted
# Assay Explanation: Metabolic stability in rat liver microsomes
# Format: ADME
# Condition Parameters: read-out: Stability
Dear colleague, please return just the value in mL/min/kg, with no unit written.

>  <Smiles Text>
Cc1cccc(Nc2cc(N[C@@H]3CCCC[C@@H]3N)nnc2C(N)=O)n1

>  <Uom>
mL/min/kg

>  <CLhep predicted>
27

$$$$
>  <Smiles Text>
Cc1nc(Nc2cc(N[C@@H]3CCCC[C@@H]3N)nnc2C(N)=O)ccc1F

>  <Uom>
mL/min/kg

>  <CLhep predicted>
18

$$$$

Output measured CLhep predicted for this item: COc1ccc(Nc2cc(N[C@@H]3CCCC[C@@H]3N)nnc2C(N)=O)nc1OC
14

Output measured CLhep predicted for this item: NC(=O)c1nnc(N[C@@H]2CCCC[C@@H]2N)cc1Nc1ccc2c(n1)CCC2
27

Output measured CLhep predicted for this item: Cc1ccc(Nc2cc(N[C@@H]3CCCC[C@@H]3N)nnc2C(N)=O)nc1C
23

Output measured CLhep predicted for this item: Cc1nc(Nc2cc(N[C@@H]3CCCC[C@@H]3N)nnc2C(N)=O)ccc1Cl
20

----------
# Assay Explanation: Oral bioavailability in mouse at 10 to 20 mg/kg
# Assay type: ADME, organism-based
# Condition Parameters: in vivo
Recorded Metric: bioavailability (%)
Dear colleague, please return just the value in %, with no unit written.

>  <Smiles Text>
CCCc1nc(Nc2cc(NCCN)nnc2C(N)=O)ccc1OC

>  <Reading>
75

$$$$
>  <Smiles Text>
COc1ccc(Nc2cc(N[C@@H]3CCOC[C@@H]3N)nnc2C(N)=O)nc1C(C)C

>  <Reading>
92

$$$$

Output measured bioavailability for this item: COc1ccc(Nc2cc(NCCN)nnc2C(N)=O)nc1C(C)C
61

----------
# Assay Explanation: Apparent terminal half life in mouse at 0.5 mg/kg, iv
# Format: ADME, organism-based
# Parameters: dose 0.5 mg/kg, route intravenous
# Condition Parameters: in vivo, read-out: betat1/2(app) (converted)
Recorded Metric: half-life (h)
Dear colleague, please return just the value in h, with no unit written.

Output measured half-life for this item: Cc1nc(Nc2cc(N[C@@H]3CCCC[C@@H]3N)nnc2C(N)=O)ccc1F
3.26

Output measured half-life for this item: Cc1nc(Nc2cc(N[C@@H]3CCCC[C@@H]3N)nnc2C(N)=O)ccc1Cl
3.92

----------
molecules and their reported clearance
# Assay Explanation: Total plasma clearance in mouse at 1 mg/kg, iv
# Format: ADME, organism-based
# Set-up: dose 1 mg/kg, route intravenous
Dear colleague, please return just the value in mL/min/kg, with no unit written.

A selection of reference data follows.
>  <Smiles Text>
COc1ccc(Nc2cc(N[C@@H]3CCOC[C@@H]3N)nnc2C(N)=O)nc1C(C)C

>  <clearance, mL/min/kg>
42.2

$$$$
>  <Smiles Text>
CCCc1nc(Nc2cc(NCCN)nnc2C(N)=O)ccc1OC

>  <clearance, mL/min/kg>
8.52

$$$$

# next molecule below
Output measured clearance for this item: COc1ccc(Nc2cc(NCCN)nnc2C(N)=O)nc1C(C)C
16.7
